// provenance: paper doi:10.1101/2023.09.30.560296

The entries below come with measured pKd values attached.
target: GST-fused LC3B (UniProt Q9GZQ8 1-120); experiment: Microfluidic Diffusional Sizing
pKd: −log10 of the molar value. Ends that are not written are not given here. * marks the point of attachment. FITC = O=C1OC2(c3ccc(O)cc3Oc3cc(O)ccc32)c2ccc(NC(=S)*)cc21; Ahx = NCCCCCC(=O)O
readout: pKd

1. {FITC-Ahx}-NSSGSSEDDFVEIRMAE [FITC-Ahx OPTN LIR peptide 169-185 (S177D)] :: 4.35
2. {FITC-Ahx}-NSSGSSEDSWVEIRMAE [FITC-Ahx OPTN LIR peptide 169-185 (F178W)] :: 4.80
3. {FITC-Ahx}-NSSGSSEDEFVEIRMAE [FITC-Ahx OPTN LIR peptide 169-185 (S177E)] :: 4.37
